Each item that follows carries a reported Percent Similarity Score (KD on hN).
study_system: T1, human NGF (human, UniProt P01138 122-241)
T1 construct: also called human Nerve Growth Factor; hN
T1 chain: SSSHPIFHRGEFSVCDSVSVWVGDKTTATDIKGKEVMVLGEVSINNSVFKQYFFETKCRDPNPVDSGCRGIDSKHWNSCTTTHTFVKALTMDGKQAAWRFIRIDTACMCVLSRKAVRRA
protocol_notes: SPR (Biacore T200), 100 nM mAb on NGF chip, similarity to parent mAb
Respond numerically; units are % and should not be typed.

Below, each entry is followed by its recorded Percent Similarity Score (KD on hN) result.
# binder, uom, Percent Similarity Score (KD on hN)
measured = [
    ("can48L2VL_S94A (antibody, V domains shown, CDR scanning mutant of ZTS-842 (48L2)) VH: EVQLVESGGDLVKPGGSLRLSCVASGFTFSTYGINWVRQAPGKGLQWVAYISSGGSSTYYADPVKGRFTISRDDAKNMLYLQMNSLRAEDTAIYYCAGSRYTYAYGGGYEFHFWGQGTLVTVSS VL: QAVLNQPASVSGALGQKVTISCSGSTMDIDIFGVSWYQQLPGKAPKLLVDSDGDRPSGIPDRFSGSRSGNSGTLTITGLQAEDEADYHCQSGDATLGALAIFGGGTHVTVL", "%", 100),
    ("can9L12VL_H99A (antibody, V domains shown) VH: EVQLVESGGDLVKPGGSLRLSCVASGFTFSSHGMHWVRQSPGKGLQWVAVINSGGSSTYYTDAVKGRFTISRDNAKNTVYLQMNSLRAEDTAMYYCAKESVGGWEQLVGPHFDYWGQGTLVIVSS VL: QSVLTQPTSVSGSLGQRVTISCSGSTNNIGILGASWYQLFPGKAPKLLVYGNGNRPSGVPDRFSGADSGDSVTLTITGLQAEDEADYYCQSFDTTLGAAVFGGGTHLTVL", "%", 56.9),
]

response.value for can48L2VL_M27A (antibody, V domains shown, CDR scanning mutant of ZTS-842 (48L2)) VH: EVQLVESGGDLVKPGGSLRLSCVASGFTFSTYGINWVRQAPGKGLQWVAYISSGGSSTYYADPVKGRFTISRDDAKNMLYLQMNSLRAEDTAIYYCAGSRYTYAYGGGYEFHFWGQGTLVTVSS VL: QAVLNQPASVSGALGQKVTISCSGSTADIDIFGVSWYQQLPGKAPKLLVDSDGDRPSGIPDRFSGSRSGNSGTLTITGLQAEDEADYHCQSGDSTLGALAIFGGGTHVTVL (field: Percent Similarity Score (KD on hN)) = 72.1
